- target_entity: DNA gyrase (374 kDa Gyr A2B2 subunit from Staphylococcus aureus) (Staphylococcus aureus, UniProt P0A0K8)
- Sequence (P0A0K8 whole entry): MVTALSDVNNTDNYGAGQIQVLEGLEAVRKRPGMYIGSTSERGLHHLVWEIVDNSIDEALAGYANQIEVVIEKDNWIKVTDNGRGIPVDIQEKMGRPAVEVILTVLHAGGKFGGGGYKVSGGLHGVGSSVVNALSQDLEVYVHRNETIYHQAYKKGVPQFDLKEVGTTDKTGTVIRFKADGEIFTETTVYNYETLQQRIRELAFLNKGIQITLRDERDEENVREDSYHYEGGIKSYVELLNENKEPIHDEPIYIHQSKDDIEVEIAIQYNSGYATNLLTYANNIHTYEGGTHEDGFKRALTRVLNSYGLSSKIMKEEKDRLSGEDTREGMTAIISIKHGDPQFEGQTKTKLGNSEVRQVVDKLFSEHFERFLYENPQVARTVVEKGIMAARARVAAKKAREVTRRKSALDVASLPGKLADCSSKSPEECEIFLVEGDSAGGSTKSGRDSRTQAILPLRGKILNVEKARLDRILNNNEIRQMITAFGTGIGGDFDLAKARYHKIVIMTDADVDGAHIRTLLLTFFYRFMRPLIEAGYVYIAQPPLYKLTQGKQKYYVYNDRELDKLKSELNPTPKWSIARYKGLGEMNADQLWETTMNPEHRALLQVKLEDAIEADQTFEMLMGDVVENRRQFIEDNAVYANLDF
- Sequence (P20831 whole entry, further chain): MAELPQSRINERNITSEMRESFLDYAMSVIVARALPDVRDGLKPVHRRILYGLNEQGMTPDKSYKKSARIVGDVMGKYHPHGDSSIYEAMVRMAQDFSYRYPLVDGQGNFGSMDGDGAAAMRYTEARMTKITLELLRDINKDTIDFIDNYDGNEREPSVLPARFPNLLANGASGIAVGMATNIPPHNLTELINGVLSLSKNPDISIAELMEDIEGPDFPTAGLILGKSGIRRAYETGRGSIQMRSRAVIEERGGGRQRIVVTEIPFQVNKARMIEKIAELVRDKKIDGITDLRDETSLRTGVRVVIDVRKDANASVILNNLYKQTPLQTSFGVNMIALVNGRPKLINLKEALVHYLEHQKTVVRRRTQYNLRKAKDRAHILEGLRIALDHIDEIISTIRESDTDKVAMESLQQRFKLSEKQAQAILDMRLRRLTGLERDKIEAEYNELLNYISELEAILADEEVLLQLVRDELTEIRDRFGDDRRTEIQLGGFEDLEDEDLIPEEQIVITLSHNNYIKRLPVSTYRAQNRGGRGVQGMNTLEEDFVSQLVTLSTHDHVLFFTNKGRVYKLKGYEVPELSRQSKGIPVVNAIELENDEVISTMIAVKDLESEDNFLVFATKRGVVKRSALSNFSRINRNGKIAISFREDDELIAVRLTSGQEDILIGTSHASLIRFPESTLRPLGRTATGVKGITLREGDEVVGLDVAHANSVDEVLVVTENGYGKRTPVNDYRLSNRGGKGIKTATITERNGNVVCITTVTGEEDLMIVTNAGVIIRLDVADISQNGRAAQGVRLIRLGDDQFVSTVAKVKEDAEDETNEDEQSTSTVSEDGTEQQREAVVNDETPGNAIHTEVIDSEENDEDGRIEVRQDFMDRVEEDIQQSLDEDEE
- method: Gyrase ATPase Assay
- Type: biochemical
- experimental_parameters: 10 μM concentration; ATPase assay at 30° C., 0.9 mM ATP; average of duplicate values; read-out: Gyrase Inhibitory Activity (percent inhibition)
measure_name: inhibition at 10 µM

| compound | inhibition at 10 µM |
| --- | --- |
| CCN/C(=N\C)Nc1nc2cc(-c3ccccc3)ccc2[nH]1 | < 50% |

Reported inhibition at 10 µM of CCNC(=O)Nc1nc2cc(-c3ccc(OCC)nc3)ccc2[nH]1 : > 75%

Documented inhibition at 10 µM of CCNC(=O)Nc1nc2cc(-c3cccnc3)c(OCCOC)c(C)c2[nH]1 : > 75%

Record CCOC(=O)Nc1nc2cc(-c3ccccc3)ccc2n1C . Reported inhibition at 10 µM: < 50%

Entry CCOC(=O)Nc1ncc(-c2ccc3[nH]c(NC(=O)OCC)nc3c2)cn1 , inhibition at 10 µM reported as > 75%

Lookup result for CCOC(=O)Nc1nc2cc(-c3cnc(OC)nc3OC)ccc2[nH]1 ; measured inhibition at 10 µM: > 75%

Value of inhibition at 10 µM reported for the compound CCNC(=O)Nc1nc2cc(-c3ccc(CNS(C)(=O)=O)nc3)ccc2[nH]1 is > 75%

The recorded inhibition at 10 µM for CCNC(=O)Nc1nc2cc(-n3cnc(C(=O)N4CCOCC4)c3)ccc2[nH]1 is > 75%

Summary for this compound, CCNC(=O)Nc1nc2cc(-c3cnc(NC(COC(C)(C)C)C(=O)OC(C)(C)C)nc3)ccc2[nH]1 (centres unmarked) : inhibition at 10 µM is > 75%

What the record says about CCNC(=O)Nc1nc2cc(-c3ccccc3)ccc2[nH]1 : inhibition at 10 µM is > 75%

Briefly, inhibition at 10 µM measured for CCNC(=O)Nc1nc2cc(-c3ccc(CN)cc3)ccc2[nH]1 : > 75%

Lab note: measured inhibition at 10 µM of CCNC(=O)Nc1nc2cc(-c3cnc(N4CCCC4)nc3)ccc2[nH]1 was > 75%

inhibition at 10 µM reported for this compound CCCNC(=O)Nc1nc2cc(-c3cccnc3)ccc2[nH]1 : > 75%

Record CCNC(=O)Nc1nc2cc(-c3ccccc3)cc(C)c2[nH]1 , field inhibition at 10 µM: > 75%

Recorded result, CCOC(=O)Nc1nc2cc(-c3cc(F)c(F)cc3F)ccc2[nH]1 , inhibition at 10 µM: 50 to 75%

# inhibition at 10 µM (compound: CCNC(=O)Nc1nc2cc(-c3cnc(NCc4cccc(F)c4)nc3)ccc2[nH]1 ) is > 75%

Data point: CCOC(=O)Nc1nc2cc(-c3cnc(N4CCNCC4)nc3)ccc2[nH]1 ; inhibition at 10 µM = > 75%

Lab book: inhibition at 10 µM of CCNC(=O)Nc1nc2cc(-c3ccc(CN)nc3)ccc2[nH]1 noted as > 75%

Given item CCNC(=O)Nc1nc2nc(-n3cnc(C(=O)O)c3)ccc2[nH]1 , the value recorded as its inhibition at 10 µM is > 75%

Just so you know, measured inhibition at 10 µM for CCNC(=O)Nc1nc2cc(-c3cnc(NCc4ccc(OC)cc4)nc3)ccc2[nH]1 came out at > 75%
